- test-system: Phosphodiesterase 3 (Homo sapiens, UniProt Q14432+Q13370)
- assay-notes: Inhibitory activity of the against phosphodiesterase 3 (PDE3); No significant inhibitory activity at pIC50
- Assay type: protein assay
Task for the reader: assign each of the following compounds its reported pIC50.

Exercise: Give the measured pIC50 of COc1ccc(C2=NN(C3CCCCCC3)C(=O)C3CC=CCC23)cc1OCCCCCCOc1ccc(C(=O)O)cc1 (stereo not given) .
Solution: < 5.5

Please look at the items below and tell me pIC50 for each one, in order.
1. COc1ccc(C2=NN(C3CCCCCC3)C(=O)C3CC=CCC23)cc1OCCCCOc1ccc(-n2ccnc2)cc1 (stereo not given)
2. COc1ccc(C2=NN(C3CCCCCC3)C(=O)C3CC=CCC23)cc1OCCO (stereo not given)
3. COc1ccc(C2=NN(C3CCCCCC3)C(=O)C3CC=CCC23)cc1Cl (stereo not given)
4. COc1ccc(C2=NN(C3CCCCCC3)C(=O)C3CC=CCC23)c2c1OC1(CCCC1)C2 (stereo not given)
5. COc1ccc(C2=NN(C3CCCCCC3)C(=O)C3CC=CCC23)cc1OCC1CC1 (stereo not given)
6. COc1ccc(C2=NN(C3CCCCCC3)C(=O)C3CC=CCC23)cc1OCC(=O)O (stereo not given)

Solution:
< 5.5
< 5.5
< 5.5
< 5.5
< 5.5
< 5.5

Please look at the items below and tell me pIC50 for each one, in order.
1. COc1ccc(C2=NN(C3CCCCCC3)C(=O)C3CC=CCC23)cc1OCCCCn1ccnc1 (stereo not given)
2. COc1ccc(C2=NN(C3CCCCCC3)C(=O)C3CC=CCC23)c2c1OC(C)(C)C2 (stereo not given)
3. COc1ccc(C2=NN(C3CCCCCC3)C(=O)C3CC=CCC23)cc1OCCCCCCOc1ccc(C(N)=O)cc1 (stereo not given)
4. COc1ccc(C2=NN(C3CCCCCC3)C(=O)C3CC=CCC23)cc1OCCCC(=O)O (stereo not given)
5. CCOc1ccc(C2=NN(Cc3ccccc3)C(=O)C3CCCCC23)cc1OCC (stereo not given)
6. COc1ccc(C2=NN(C3CCCCCC3)C(=O)C3CC=CCC23)cc1OC(F)F (stereo not given)
7. COc1ccc(C2=NN(C3CCCCCC3)C(=O)C3CC=CCC23)cc1OCCCCCCOc1ccccc1 (stereo not given)

Solution:
["< 5.5", "< 5.5", "< 5.5", "< 5.5", "< 5.5", "< 5.5", "< 5.5"]

Please look at the items below and tell me pIC50 for each one, in order.
1. COc1ccc(C2=NN(C3CCCCCC3)C(=O)C3CC=CCC23)cc1O (stereo not given)
2. COc1cccc(C2=NN(Cc3ccccc3)C(=O)C3CCCCC23)c1 (stereo not given)
3. COc1ccc(C2=NN(Cc3ccccc3)C(=O)C3CCCCC23)cc1OC (stereo not given)
4. COc1ccc(C2=NN(C3CCCCCC3)C(=O)C3CC=CCC23)cc1OCCN(C)C (stereo not given)
5. COc1ccc([C@@H]2CNC(=O)C2)cc1OC1CCCC1 [(-)-ROLIPRAM]
6. COc1ccc(C2=NN(C3CCCCCC3)C(=O)C3CC=CCC23)cc1OCCCCOc1ccc(C(=O)O)cc1 (stereo not given)

Solution:
["< 5.5", "< 5.5", "< 5.5", "< 5.5", "< 5.5", "< 5.5"]
